- Test system: B16
- ASSAY EXPLANATION: Antiproliferative activity against mouse B16 cells after 72 hrs by MTT assay
- Assay type: functional, cell-based
- CONDITION SET: B16, 72 h
Consider the following molecules; for each one, report its IC50.
# unit: nM | format: bare number

Exam item: Need IC50, item N[C@@H](CCC(=O)N[C@@H](CS(=O)(=O)CCOP(=O)(N(CCCl)CCCl)N(CCCl)CCCl)C(=O)N[C@@H](C(=O)O)c1ccccc1)C(=O)O [CANFOSFAMIDE]
Marked response: 710

Exam item: Name the reported IC50 value associated with the molecule N[C@@H](CCC(=O)N[C@@H](CS(=O)(=O)CCO/N=[N+](\[O-])N1CCC(O)CC1)C(=O)NCC(=O)O)C(=O)O
Marked response: 184

Exam item: State the recorded IC50 for this entry: CCOC(=O)N1CCN(/[N+]([O-])=N/Oc2ccc([N+](=O)[O-])cc2[N+](=O)[O-])CC1
Marked response: 1340

Exam item: Need IC50 of [O-]/[N+](=N\O)N1CCC(O)CC1 , thanks.
Marked response: 928

Exam item: So what's the measured IC50 for this one? CCOC(=O)N1CCN(/[N+]([O-])=N/OCCS(=O)(=O)C[C@H](NC(=O)CC[C@H](N)C(=O)OC)C(=O)NCC(=O)OC)CC1
Marked response: 195

Exam item: Entry under review: N[C@@H](CCC(=O)N[C@@H](CS(=O)(=O)CCO/N=[N+](\[O-])N(CCCl)CCCl)C(=O)NCC(=O)O)C(=O)O . Reported IC50?
Marked response: 404

Exam item: Would you mind telling me what IC50 value was observed for C=CS(=O)(=O)C[C@H](NC(=O)CC[C@H](N)C(=O)O)C(=O)NCC(=O)O ?
Marked response: 1910

====

- ASSAY EXPLANATION: Antiproliferative activity against mouse JB6 Cl 30-7b cells after 72 hrs by MTT assay
- Type: cell-based
VALUE KIND: IC50 (µM)
The reply should contain only the number, in µM.

Exam item: Tell me the measured IC50 of N[C@@H](CCC(=O)N[C@@H](CS(=O)(=O)CCO/N=[N+](\[O-])N1CCC(O)CC1)C(=O)NCC(=O)O)C(=O)O , please.
Marked response: 1.4

meta.source: ChEMBL document CHEMBL4033787
